Measurement Notes: Pharmacokinetics in mice (IV and PO), plasma LC-MS/MS
Assay type: in vivo, Male ICR (CD-1) mice
Experimental Parameters: male, ICR (CD-1), mouse, plasma, 10 mg/kg, PO (10 mpk)
Description: Male ICR (CD-1) mice at around 4-6 weeks with body weight of around 25 grams (n=3) were purchased from VT-River (Zhejiang, China). After 1-week acclimation, animals were dosed with exemplary compounds intravenously at 1 mpk or orally at 10 mpk (0.5% methylcellulose in PBS as vehicle for both routes of administration). Blood samples (30 μL) were collected via saphenous vein puncture at 5 (IV only), 15, 30, 60, 120, 240, 480, and 1440 min post dose. […]
Structures can show the parent of a compound that is named as a salt.
Assignment: determine reported Cmax for the given compounds.
Give bare numbers, in nM.

Reference set, count: 3
>>> number("COc1ccc(C(=O)N(CC(C)(C)CCCCCCCCCCCCCCCCCCCC(=O)NCCC[N+](C)(CC(=O)[O-])CC(=O)O)c2cccc(C)n2)c(N2CCC(COc3cc([C@@H](CC(=O)O)C4CC4)ccn3)CC2)c1 (stereo partly shown)")
164
>>> number("COc1ccc(C(=O)N(CC(C)(C)CCCCCCCCCCCCCCCCCC(=O)NCCC[N+]23CC[N+](C)(CC2)CC3)c2cccc(C)n2)c(N2CCC(COc3cc([C@@H](CC(=O)O)C4CC4)ccn3)CC2)c1")
77
>>> number("COc1ccc(C(=O)N(CC(C)(C)CCCCCCCCCCCCCCCCCCCC(=O)NCCCN(CC(=O)O)CC(=O)O)c2cccc(C)n2)c(N2CCC(COc3cc([C@@H](CC(=O)O)C4CC4)ccn3)CC2)c1")
268

Batch lookup, Cmax per entry.
1. COc1ccc(C(=O)N(CC(C)(C)CCCCCCCCCCCCCCCCCCCCCC[N+]23CCN(CC2)CC3)c2cccc(C)n2)c(N2CCC(COc3cc([C@@H](CC(=O)O)C4CC4)ccn3)CC2)c1
2. COc1ccc(C(=O)N(CC(C)(C)CCCCCCCCCCCCCCCCCCCC(=O)NCC[N+](C)(CC(=O)NCCN)CC(=O)NCCN)c2cccc(C)n2)c(N2CCC(COc3cc([C@@H](CC(=O)O)C4CC4)ccn3)CC2)c1
3. COc1ccc(C(=O)N(CC(C)(C)CCCCCCCCCCCCCCCCCC(=O)NCCC[N+](C)(CC(=O)NCCN)CC(=O)NCCN)c2cccc(C)n2)c(N2CCC(COc3cc([C@@H](CC(=O)O)C4CC4)ccn3)CC2)c1

Reply text:
1: 37; 2: 66.1; 3: 80.7

Inquiry: # lookup: Cmax of COc1ccc(C(=O)N(CC(C)(C)CCCCCCCCCCCCCCCCCC(=O)NCCC[N+]23CCN(CC2)CC3)c2cccc(C)n2)c(N2CCC(COc3cc([C@@H](CC(=O)O)C4CC4)ccn3)CC2)c1 [Example 18, TFA salt]
Reply text: 42

* * *

Please go through the items and note down their pEC50.
Target Under Test: GPR40 (Homo sapiens)
Construct: expressed in transfected cells
Measurement Notes: IP1 accumulation assay in HEK293 cells stably expressing GPR40
Type: cell-based
Experimental Parameters: HEK293 cells stably expressing GPR40, 2 hours at 37° C.
Where a name gives a salt, the structure may show the parent alone.
Answers are plain numbers, as −log10 of the molar value.

// known answers, use as guide
>>> number("COc1ccc(C(=O)N(CC(C)(C)CCCCCCCCCCCCCCCCCCNC(=O)C[N+]23CCN(CC2)CC3)c2cccc(C)n2)c(N2CCC(COc3cc([C@@H](CC(=O)O)C4CC4)ccn3)CC2)c1 [Example 23, trifluoroacetate]")
8.55
>>> number("COc1ccc(C(=O)N(CC(C)(C)CCCCCCCCCCCCCCCCCCCC(=O)NCCC[N+](C)(CC(=O)NCCN)CC(=O)NCCN)c2cccc(C)n2)c(N2CCC(COc3cc([C@@H](CC(=O)O)C4CC4)ccn3)CC2)c1 [Example 6]")
9.08
>>> number("COc1ccc(C(=O)N(CC(C)(C)CCCCCCCCCCCCCCCCCCCC(=O)NCC[N+](C)(CCC(=O)NCCN)CCC(=O)NCCN)c2cccc(C)n2)c(N2CCC(COc3cc([C@@H](CC(=O)O)C4CC4)ccn3)CC2)c1 [Example 3]")
8.75

Please state, for each entry, its recorded pEC50.
1. COc1ccc(C(=O)N(CC(C)(C)CCCCCCCCCCCCCCCCCCCC(=O)NCCCN(C)CC(=O)NCCN)c2cccc(C)n2)c(N2CCC(COc3cc([C@@H](CC(=O)O)C4CC4)ccn3)CC2)c1 [Example 15]
2. CCCCNC(=O)CCCCCCCCCCCCCCCCCC(C)(C)CN(C(=O)c1ccc(OC)cc1N1CCC(COc2cc([C@@H](CC(=O)O)C3CC3)ccn2)CC1)c1cccc(C)n1 [Example 32]

Reply text:
9.17
6.41

* * *

Target Under Test: GPR40 (Homo sapiens, UniProt O14842)
Construct: expressed in transfected cells
Sequence (O14842 whole entry): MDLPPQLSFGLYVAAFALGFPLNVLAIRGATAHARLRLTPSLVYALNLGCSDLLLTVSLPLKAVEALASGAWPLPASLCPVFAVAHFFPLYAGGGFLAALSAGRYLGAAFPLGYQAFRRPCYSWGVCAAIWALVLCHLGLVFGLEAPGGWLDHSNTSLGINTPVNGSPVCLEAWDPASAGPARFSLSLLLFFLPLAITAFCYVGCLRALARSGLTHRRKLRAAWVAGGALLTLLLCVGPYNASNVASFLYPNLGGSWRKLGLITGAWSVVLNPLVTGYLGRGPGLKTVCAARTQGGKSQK
Measurement Notes: IP1 accumulation assay in HEK293 cells stably expressing GPR40
Type: cell-based
Experimental Parameters: HEK293 cells stably expressing GPR40, 2 hours at 37° C.
Structures can show the parent of a compound that is named as a salt.
Our labelling divides records by EC50 into ranges: band 1 (below 500 pM), band 2 (500 pM to below 1000 pM), band 3 (1000 pM or more)

The following molecules have reported results that may help.
>>> cat("COc1ccc(C(=O)N(CC(C)(C)CCCCCCCCCCCCCCCCCC(=O)NCc2ccccc2)c2cccc(C)n2)c(N2CCC(COc3cc([C@@H](CC(=O)O)C4CC4)ccn3)CC2)c1")
"band 3"
>>> cat("COc1ccc(C(=O)N(CC(C)(C)CCCCCCCCCCCCCCCCCCCCCC(=O)NCC[N+](C)(CC(=O)NCCN)CC(=O)NCCN)c2cccc(C)n2)c(N2CCC(COc3cc([C@@H](CC(=O)O)C4CC4)ccn3)CC2)c1 [Example 11, trifluoroacetate]")
"band 3"
>>> cat("COc1ccc(C(=O)N(CC(C)(C)CCCCCCCCCCCCCCCCCCCC(=O)NCCCN(CC(=O)O)CC(=O)O)c2cccc(C)n2)c(N2CCC(COc3cc([C@@H](CC(=O)O)C4CC4)ccn3)CC2)c1")
"band 2"
>>> cat("COc1ccc(C(=O)N(CC(C)(C)CCCCCCCCCCCCCCCCCCCC(=O)NCCC[N+](C)(C)CC(=O)NCCN)c2cccc(C)n2)c(N2CCC(COc3cc([C@@H](CC(=O)O)C4CC4)ccn3)CC2)c1")
"band 1"

Inquiry: Lab note: which band did COc1ccc(C(=O)N(CC(C)(C)CCCCCCCCCCCCCCCCCC[N+]2(C)CCN(C)CC2)c2cccc(C)n2)c(N2CCC(COc3cc([C@@H](CC(=O)O)C4CC4)ccn3)CC2)c1 land in?
Reply text: band 3

Inquiry: Bin this entry: COc1ccc(C(=O)N(CC(C)(C)CCCCCCCCCCCCCCCCCC(=O)NCCC[N+](C)(C)CCCS(=O)(=O)[O-])c2cccc(C)n2)c(N2CCC(COc3cc([C@@H](CC(=O)O)C4CC4)ccn3)CC2)c1
Reply text: band 2

Inquiry: Could you place COc1ccc(C(=O)N(CC(C)(C)CCCCCCCCCCCCCCCCCCCC(=O)NCCN(CCC(=O)NCCN)CCC(=O)NCCN)c2cccc(C)n2)c(N2CCC(COc3cc([C@@H](CC(=O)O)C4CC4)ccn3)CC2)c1 in its proper category? Many thanks.
Reply text: band 3

Inquiry: Pick a category. Item: COc1ccc(C(=O)N(CC(C)(C)CCCCCCCCCCCCCCCCCC[N+]23CCN(CC2)CC3)c2cccc(C)n2)c(N2CCC(COc3cc([C@@H](CC(=O)O)C4CC4)ccn3)CC2)c1
Reply text: band 1

Inquiry: Assign a category based on measured EC50 for COc1ccc(C(=O)N(CC(C)(C)CCCCCCCCCCCCCCCCCC[N+](C)(C)C)c2cccc(C)n2)c(N2CCC(COc3cc([C@@H](CC(=O)O)C4CC4)ccn3)CC2)c1 and give only the class name.
Reply text: band 1

* * *

Please go through the items and note down their EC50.
Target Under Test: GPR40 (Homo sapiens)
Measurement Notes: IP1 accumulation assay in HEK293 cells stably expressing GPR40
Experimental Parameters: HEK293 cells stably expressing GPR40, 2 hours at 37° C.
Counter-ions that a name gives are not always drawn.
Give bare numbers, in nM.

Below are worked cases with known answers.
>>> number("COc1ccc(C(=O)N(CC(C)(C)CCCCCCCCCCCCCCCCCC(=O)NCCC[N+]23CCN(CC2)CC3)c2cccc(C)n2)c(N2CCC(COc3cc([C@@H](CC(=O)O)C4CC4)ccn3)CC2)c1 [Example 18, TFA salt]")
0.24
>>> number("C[C@H](C(=O)O)[C@H](c1ccc2c(c1)O[C@@H](C1CCN(Cc3cc(CCCCCCCCCCCCCCCCCCCC(=O)NCCC[N+](C)(CC(=O)NCCN)CC(=O)NCCN)ccc3OC(F)(F)F)CC1)CC2)C1CC1")
3.57

I would be grateful if you could provide EC50 for each of the following entries.
1. COc1ccc(C(=O)N(CC(C)(C)CCCCCCCCCCCCCCCCCCCC(=O)NCCC[N+](C)(CC(=O)[O-])CC(=O)O)c2cccc(C)n2)c(N2CCC(COc3cc([C@@H](CC(=O)O)C4CC4)ccn3)CC2)c1 (stereo partly drawn)
2. CC[N+](CC)(CC)CCCCCCCCCCCCCCCCCCC(C)(C)CN(C(=O)c1ccc(OC)cc1N1CCC(COc2cc([C@@H](CC(=O)O)C3CC3)ccn2)CC1)c1cccc(C)n1
3. COc1ccc(C(=O)N(CC(C)(C)CCCCCCCCCCCCCCCCCC(=O)NCCC[N+]23CC[N+](C)(CC2)CC3)c2cccc(C)n2)c(N2CCC(COc3cc([C@@H](CC(=O)O)C4CC4)ccn3)CC2)c1
4. CC[N+](CC)(CC)CCCCNC(=O)CCCCCCCCCCCCCCCCCC(C)(C)CN(C(=O)c1ccc(OC)cc1N1CCC(COc2cc([C@@H](CC(=O)O)C3CC3)ccn2)CC1)c1cccc(C)n1

Reply text:
1. 0.63
2. 0.36
3. 0.07
4. 0.43
